# Measured Target: Serine hydrolase RBBP9 (Homo sapiens) (UniProt O75884)
# Sequence (O75884 whole entry, looked up): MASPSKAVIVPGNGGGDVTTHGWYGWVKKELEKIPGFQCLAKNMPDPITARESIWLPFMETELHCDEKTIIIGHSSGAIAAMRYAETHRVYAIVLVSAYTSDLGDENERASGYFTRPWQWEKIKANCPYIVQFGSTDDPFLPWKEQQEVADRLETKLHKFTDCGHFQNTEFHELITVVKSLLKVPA
# Assay Details: human RBBP9 inhibitors, primary screen, biochemical, fluorescence polarization, FP-Rh probe, HTS (AID 1515);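 further: plate controls were DMSO wells with RBBP9 for no effect and wells lacking RBBP9 protein for full effect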
# Test Context: recombinant RBBP9, FP-Rh probe fluorescence polarization; at 7.94 µM
Screen size: about 220,000 compounds; about 440 (0.2%) were called active.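 How the source made its calls: active means inhibition above the campaign mean of all tested compounds plus 3 SD (cut at about 14% in these data); inactive means the rest.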 Shown is part of a subset that was picked to be rich in actives.
Your response should consist of one outcome taken from 1 (yes) = active, 0 (no) = inactive

| Compound | Class Assignment |
| --- | --- |
| Cc1cccc(-c2nc3c(c(SCC(=O)N4CCOCC4)n2)CCCC3)c1 | 0 (no) |

Request: Recorded call for COc1ccc(OC)c(NC(=S)N2CCc3ccccc3C2)c1 ?
Response: 0 (no)

Request: Also check COc1cc(/C=N/NC(=O)c2ccccc2)ccc1OS(=O)(=O)c1ccccc1
Response: 0 (no)

Request: Also check Nc1nnc(SCC(=O)OCc2ccc(Cl)c(Cl)c2)s1
Response: 0 (no)

Request: Also check COC(=O)c1ccc(C2C3=C(Nc4nnnn42)c2ccccc2OC3)cc1 (stereo not drawn)
Response: 0 (no)

Request: Also check CCN(CC)C(=O)Oc1ccc(OC(=O)N(CC)CC)cc1
Response: 0 (no)

Request: Also check CCc1ccccc1NC1c2ccccc2C(=O)N1c1cccnc1 (stereo not drawn)
Response: 1 (yes)

Request: Also check O=C(NCCCn1ccnc1)C(=O)NCC1OCCN1S(=O)(=O)c1cc(F)ccc1F (stereo not drawn)
Response: 0 (no)

Request: Also check CC(C)OCCCNC(=O)CNC(=O)c1cccs1
Response: 1 (yes)

Request: Also check CC(C)(C)C1CCC(OC(=O)CCC(=O)Nc2ccccc2)CC1 (stereo not drawn)
Response: 0 (no)

Request: Also check O=C(NCc1cccs1)C(=O)NCC1OCCCN1S(=O)(=O)c1ccc(F)cc1 (stereo not drawn)
Response: 0 (no)

Request: Also check COc1ccc(/C=N/NC(=O)c2ccccc2)cc1OS(=O)(=O)c1ccccc1
Response: 0 (no)

Request: Also check COc1ccc(N2C(=O)C3CCCN3C2c2cccc(OC)c2)cc1 (stereo not drawn)
Response: 0 (no)

Request: Also check CC(C)OCC(O)CN1CCN(C(c2ccccc2)c2ccccc2)CC1 (stereo not drawn)
Response: 0 (no)

Request: Also check CC(C)C(=O)Nc1ccc(C(=O)NNC(=O)c2cccs2)cc1
Response: 0 (no)

Request: Also check COc1ccc(N2C(=O)C3CCCN3C2c2cccs2)cc1 (stereo not drawn)
Response: 0 (no)

Request: Also check CC[n+]1c(C)n(-c2ccccc2)c2ccc(NC(C)=O)cc21
Response: 0 (no)

Request: Also check CC(C)NC(=O)C(=O)NCCCOC(C)C
Response: 0 (no)

Request: Also check O=C1CN(C(=O)CN2C(=O)NC3(CCCCC3)C2=O)c2ccccc2N1
Response: 0 (no)

Request: Also check COc1ccccc1P(=O)(c1ccccc1)c1ccccc1NC(C)=O (stereo not drawn)
Response: 0 (no)
